B1: library; a variant is named by its letters at N, in order (parent)
chain: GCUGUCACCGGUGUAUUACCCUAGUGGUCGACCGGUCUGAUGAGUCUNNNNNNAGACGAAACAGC

- Variants of: B1
- test_summary: normalized RNA/DNA level with ligand (relative to sTRSVctl = 100) (log10 (% of sTRSVctl)); ligand: hypoxanthine (xanthine aptamer); higher = less ribozyme self-cleavage, higher mRNA level
- applied_conditions: ligand concentration (+) RNA-Seq: 5 mM, HEK293T, reporter: mCherry (pCS4076), ligand present: yes
// normalized RNA/DNA level with ligand (log10) lookup, one value per entry
Keep the answer to the number alone.

Examples with answers:
primary_sequence	result_number
GCUGUCACCGGUGUAUUACCCUAGUGGUCGACCGGUCUGAUGAGUCUGCAGUUAGACGAAACAGC [GCAGUU]	1.97
GCUGUCACCGGUGUAUUACCCUAGUGGUCGACCGGUCUGAUGAGUCUAAUUACAGACGAAACAGC [AAUUAC]	1.96
GCUGUCACCGGUGUAUUACCCUAGUGGUCGACCGGUCUGAUGAGUCUGGCUAGAGACGAAACAGC [GGCUAG]	1.81
GCUGUCACCGGUGUAUUACCCUAGUGGUCGACCGGUCUGAUGAGUCUCUUGCGAGACGAAACAGC [CUUGCG]	1.94
GCUGUCACCGGUGUAUUACCCUAGUGGUCGACCGGUCUGAUGAGUCUACUCUCAGACGAAACAGC [ACUCUC]	2.06
GCUGUCACCGGUGUAUUACCCUAGUGGUCGACCGGUCUGAUGAGUCUGCAAAUAGACGAAACAGC [GCAAAU]	1.93
GCUGUCACCGGUGUAUUACCCUAGUGGUCGACCGGUCUGAUGAGUCUCCGGGCAGACGAAACAGC [CCGGGC]	1.99
GCUGUCACCGGUGUAUUACCCUAGUGGUCGACCGGUCUGAUGAGUCUUAACAAAGACGAAACAGC [UAACAA]	1.92
GCUGUCACCGGUGUAUUACCCUAGUGGUCGACCGGUCUGAUGAGUCUCAUGAAAGACGAAACAGC [CAUGAA]	1.87
GCUGUCACCGGUGUAUUACCCUAGUGGUCGACCGGUCUGAUGAGUCUCCCUUGAGACGAAACAGC [CCCUUG]	1.98

input: Please give the measured normalized RNA/DNA level with ligand (log10) for this variant: GCUGUCACCGGUGUAUUACCCUAGUGGUCGACCGGUCUGAUGAGUCUAGCACCAGACGAAACAGC [AGCACC]
output: 1.98

input: Please give the measured normalized RNA/DNA level with ligand (log10) for this variant: GCUGUCACCGGUGUAUUACCCUAGUGGUCGACCGGUCUGAUGAGUCUCUACUCAGACGAAACAGC [CUACUC]
output: 2.04

input: Please give the measured normalized RNA/DNA level with ligand (log10) for this variant: GCUGUCACCGGUGUAUUACCCUAGUGGUCGACCGGUCUGAUGAGUCUACGCGAAGACGAAACAGC [ACGCGA]
output: 1.77

input: Please give the measured normalized RNA/DNA level with ligand (log10) for this variant: GCUGUCACCGGUGUAUUACCCUAGUGGUCGACCGGUCUGAUGAGUCUGAUUUGAGACGAAACAGC [GAUUUG]
output: 1.87

input: Please give the measured normalized RNA/DNA level with ligand (log10) for this variant: GCUGUCACCGGUGUAUUACCCUAGUGGUCGACCGGUCUGAUGAGUCUGCACGGAGACGAAACAGC [GCACGG]
output: 1.86
